Examples of molecules with documented TGI follow.
- Tested on: SNB-75 CNS
- Test name: NCI tumour cell line growth inhibition, 48 h

Molecule	TGI
COc1ccc(-c2nc3sccn3c2-c2ccnc(NCCCNS(=O)(=O)c3ccc(F)cc3)n2)cc1	6.04 µM
O=C(/C=C/c1ccc(O)cc1)c1cc(Cl)ccc1O	> 100 µM
O=C(O)c1cn(C2CC2)c2cc(N3CCN(Cc4ccc5ccccc5c4O)CC3)c(F)cc2c1=O	6.73 µM
COc1ccc2c(c1)/C(=C\c1c(Cl)n(-c3ccccc3)c3ccccc13)C(=O)N2	52.2 µM
O=C1CC[C@@H](NC(=O)Cc2ccccc2)C(=O)N1	> 100 µM

Exercise: For SNB-75 CNS, give the measured TGI of the entry ClCCCCOC1CCCCO1 (configuration not stated)
Key: > 100 µM

Exercise: Provide TGI, recorded with SNB-75 CNS, of CCOP(=O)(OCC)C(Nc1cccc(F)c1)c1ccc(N(C)C)cc1 (configuration not stated)
Key: > 100 µM

Exercise: State TGI (SNB-75 CNS) of Cc1ccc(/C=C2\NC(=S)N(CN3CCCCC3)C2=O)cc1 .
Key: > 100 µM

Exercise: Report TGI on SNB-75 CNS for this entry: CC1CC(c2ccc(Cl)c(Cl)c2)=Nc2ccccc2S1 (configuration not stated)
Key: > 100 µM

Exercise: Retrieve TGI on SNB-75 CNS; query NNc1ncc2c(n1)-c1ccccc1OC2
Key: > 100 µM

Exercise: Specify the recorded TGI for COCOc1c(C(OCOC)c2cnc(Sc3ccccc3)n2C)ccc(OC)c1OC (configuration not stated) , system: SNB-75 CNS.
Key: > 100 µM

Exercise: Provide TGI, tested on SNB-75 CNS, for CNCCN(C)Cc1cn[nH]c1-c1ccc(OC2CC(OCCC3CCOCC3)C2)cc1 (configuration not stated) .
Key: > 100 µM

====

- Tested on: SK-MEL-2 melanoma
- Test name: NCI tumour cell line growth inhibition, 48 h
Measured quantity: TGI (µM)
Respond with the bare value in µM.

Compound	Measured quantity	Quantitative readout
COc1ccc2c(c1)N(CCO)C1=C(C(=O)OC1)C2c1ccc(OC)c(OC)c1 (centres undefined)	TGI	11.3

Exercise: # return recorded TGI for input N[C@@H](CSSC[C@H](N)C(=O)N1CCn2cc(-c3ccccc3)nc2[C@@H]1CC1CCCCC1)C(=O)N1CCn2cc(-c3ccccc3)nc2[C@@H]1CC1CCCCC1
Key: 2.28

====

Readings of GI50 for the listed compounds
- Test system: K-562 leukemia
- Test name: NCI tumour cell line growth inhibition, 48 h

Answered cases to consult:
Smiles str	Result
Cc1cc2c(cc1Cl)N1C(=O)NS(=O)(=O)N=C1NS2(=O)=O	> 100 µM
O=C1/C(=C/c2ccccc2[N+](=O)[O-])COc2ccc(O)c(O)c21	0.428 µM

Exercise: Return reported GI50. Input compound: COc1cc(-c2nn(-c3cccc(NC(=O)CCN4CCN(C)CC4)c3)cc2-c2ccncc2)ccc1Cl
Key: 0.73 µM

====

- Tested on: DMS 273 small cell lung
- Test name: NCI tumour cell line growth inhibition, 48 h
Measured quantity: TGI

The cases that follow already have their TGI on record.
Compound	TGI
COc1ccc(/C=C2\CCC(Cc3ccccc3)(CN(C)C)C2=O)cc1 (centres undefined)	32.5 µM
COC(=O)C1=C(\O)C[C@@]2(C)CC[C@@H](C(=O)OC)C2C/C=C\1C(=O)OC (some centres undefined)	> 100 µM
O=C1OC2(OC2c2ccc(Cl)cc2)c2ccccc21 (centres undefined)	> 100 µM

API: the following record is the query input.
Exercise: Write down TGI measured for item N#CC1CCCCC1NC1(C#N)CCCCC1 (centres undefined)
Key: > 100 µM

====

- System: NCI-H23 lung
- Test name: NCI tumour cell line growth inhibition, 48 h; in the data active = GI50 below about 0.43 µM; inactive = the rest
Please reply with one of these outcomes: active, inactive

Compound	Measurement target	Category label
C#Cc1ccc(-n2c(/C=C/c3ccc4ccccc4c3)nc3ncccc3c2=O)cc1	NCI-H23 lung	inactive
COc1ccc(-c2nc3sccn3c2-c2ccnc(NCCCNS(=O)(=O)c3ccc(F)cc3)n2)cc1	NCI-H23 lung	inactive
Fc1ccc(-c2c(-c3ccncc3)[nH]c3nccnc23)cc1	NCI-H23 lung	inactive
O=C(Nc1ccccc1)Nc1ccc(Cl)c(Cl)c1	NCI-H23 lung	inactive

Exercise: For this compound, state the assay outcome: CNCCN(C)Cc1cn[nH]c1-c1ccc(OC2CC(OCCC3CCOCC3)C2)cc1 (stereo unspecified)
Key: inactive

Exercise: Call for entry Cc1cn2c(/C=C3/C(=O)Nc4ccc(Cl)cc43)c(C)nc2s1 :
Key: active

====

- System: OVCAR-3 ovarian
- Test name: NCI tumour cell line growth inhibition, 48 h
Measured quantity: TGI (µM)
Express it in µM; write the number only.

Compound	Measurement target	Quantitative readout
CCCCCCCCCCCC(=O)OC(COC(N)=O)COc1ccc(Cl)cc1 (stereo unspecified)	OVCAR-3 ovarian	31.6
O=c1oc2c/c(=C\c3ccccn3)c(=O)c3cccc1c3-2	OVCAR-3 ovarian	39.4

Below: the item to evaluate.
Exercise: Give recorded TGI. O=C(CSc1nc2ccc(I)cc2c(=O)n1Cc1ccccc1)NN1C(=O)c2ccccc2C1=O
Key: 28.6

====

- Tested on: SK-MEL-28 melanoma
- Test name: NCI tumour cell line growth inhibition, 48 h
Where a SMILES comes first, the peptide text is derived from it. [ ]: non-standard residue; d: D form. The star is where a group is joined. Phe(4-NO2) = N[CH](Cc1ccc([N+](=O)[O-])cc1)C(=O)O; Boc = CC(C)(C)OC(=O)*
Measured quantity: TGI

Known results for molecules:
Molecule	Measured quantity	Result
COc1cc2c(cc1O)C1CC(CC3CCCCN31)OC(=O)/C=C\c1ccc(O)c-2c1 (centres undefined)	TGI	85.2 µM
CC(=O)OCC1OC(Oc2cc(C)c(O)cc2C/C=C(\C)CC/C=C(\C)C[C@@H](C=C(C)C)OC(C)=O)C(O)C(OC(C)=O)C1OC(C)=O (some centres undefined)	TGI	> 50 µM
O=C1NC(=N[C@H](CO)c2ccccc2)S/C1=C\c1ccc2ncccc2c1	TGI	> 25 µM
CSc1ccc(/C=C2\N=C(c3ccccc3)N(/N=C3\C(=O)Nc4ccccc43)C2=O)cc1	TGI	> 100 µM
CC(C)COC(c1ccc2c(c1)OCO2)C(C)Br (centres undefined)	TGI	> 100 µM
Oc1cccc(-c2nc(-c3ccccc3)[nH]c2-c2ccncc2)c1	TGI	> 18.5 µM
O=C(NNC(=O)c1ccccc1O)c1ccco1	TGI	> 100 µM
COc1cc(/C=C/c2ccccn2)cc(OC)c1OC	TGI	> 10 µM
COc1cc(-c2nn(-c3cccc(NC(=O)CCN4CCN(C)CC4)c3)cc2-c2ccncc2)ccc1Cl	TGI	2.99 µM
O=C(NC1C(=O)NNC1c1ccccc1Cl)c1ccccc1 (centres undefined)	TGI	> 100 µM

Exercise: Given Nc1nc2ncn(CC(O)COC(=O)c3ccccc3)c2c(=O)[nH]1 (centres undefined) , respond with its TGI.
Key: > 100 µM

Exercise: Answer with reported TGI of COC(=O)CCC(NC(=O)OC(C)(C)C)C(=O)NC(Cc1ccc([N+](=O)[O-])cc1)C(=O)NC(CCC(=O)OC)C(=O)OC (centres undefined) (Boc-Glu(OMe)-[Phe(4-NO2)]-Glu(OMe)-OMe; configuration not given here)
Key: > 100 µM

Exercise: Determine its reported TGI: C=C(CO)[C@H]1Oc2ccc(C(C)=O)cc2[C@@H]1O
Key: > 100 µM

Exercise: Tell me its TGI given N=C1/C(=C2\Nc3ccccc3S2)CC(=O)N1c1ccc(SC(F)F)cc1 as the entry.
Key: > 100 µM

Exercise: Recall and state the measured TGI for COc1cc(NC(=O)c2ccccc2Nc2ccnc(C(F)(F)F)c2)cc(OC)c1OC .
Key: > 100 µM

Exercise: Please report TGI for the following molecule: CC12CC(=O)C3C(CCC4=CC(=O)CCC43C)C1CC=C2CC(=O)O (centres undefined)
Key: > 100 µM

Exercise: Report TGI, nothing else, for this molecule: COC(=O)C(/C(=N/N)C(=O)Nc1cccc(O)c1)c1nc2ccccc2[nH]c1=O (centres undefined)
Key: > 100 µM

Exercise: Quote TGI reported for CCc1ccc(/C=C/C(=O)C2CN(CC)CCC2(O)/C=C/c2ccc(CC)cc2)cc1 (centres undefined) please.
Key: 3.04 µM

Exercise: Specify measured TGI for Cc1ccc(S(=O)(=O)Oc2nc3nc4ccccc4nc3nc2OS(=O)(=O)c2ccc(C)cc2)cc1 .
Key: > 100 µM

Exercise: Dear colleague, please send me the reported TGI for N[C@@H](CSSC[C@H](N)C(=O)N1CCn2cc(-c3ccccc3)nc2[C@@H]1CC1CCCCC1)C(=O)N1CCn2cc(-c3ccccc3)nc2[C@@H]1CC1CCCCC1 when you can.
Key: 1.96 µM

Exercise: Identify the reported TGI for the following entry. Fc1ccc(-c2nn3c(COc4ccc(Cl)cc4Cl)nnc3s2)cc1Oc1ccccc1
Key: 42.9 µM

Exercise: Answer with reported TGI of c1ccc2c3nnc(c2c1)SCCCSc1nnc(c2ccccc12)SCCCS3
Key: > 100 µM

Exercise: Give the value of TGI reported for the following: ClCCCCOC1CCCCO1 (centres undefined)
Key: > 100 µM

Exercise: Identify measured TGI associated with COc1ccc2c(c1)N(CCO)C1=C(C(=O)OC1)C2c1ccc(OC)c(OC)c1 (centres undefined)
Key: > 100 µM

Exercise: Fill in TGI for record COC(=O)[C@]12CC[C@@H](C)[C@H](C)[C@@H]1C1=CC[C@@H]3[C@@]4(C)CC(=O)[C@H](O)[C@@](C)(CO)[C@@H]4C(=O)C[C@@]3(C)[C@]1(C)CC2
Key: 31.9 µM

Exercise: Kindly indicate its recorded TGI. Item: COC1=CC2CCN3Cc4cc5c(cc4C(C1O)C23)OCC5 (centres undefined)
Key: > 24.2 µM

Exercise: For the molecule COc1ccc2c(c1)C(=O)c1c-2c(N2CCN(C(=O)CCNCCNCCO)CC2)nc2ccccc12 , report TGI.
Key: 23.4 µM

Exercise: Consider the molecule CNc1ncnc2c1cnn2CCCCO and give its recorded TGI.
Key: > 100 µM
